meta.source: ChEMBL document CHEMBL2034843

- Test system: HeLa
- ASSAY COMMENT: Cytotoxicity against human HeLa cells after 72 hrs by trypan blue assay
- Type: functional, cell-based
pIC50: −log10 of the molar value.

# CHEMICAL STRING, pIC50
measured = [
    ("C/C(=C/CC[C@H](C)[C@@H]1CC[C@]2(C)C3=CC[C@H]4C(C)(C)[C@H](O)CC[C@]4(C)[C@H]3CC[C@@]12C)C(=O)O", 4.54),
]
